# Tested on: AB0057 A. baumannii spp. clinical strain
# protocolDescription: Disk susceptibility assay
# Format: cell-based
# experimentalParameters: 10 μg of BAI and 10 μg of sulbactam per disk, zone size
Each item that follows carries a reported disk assay.

molecule: O=C(Cc1cccs1)N[C@@H](Cn1cc(-c2cccc(-c3nn[nH]n3)c2)nn1)B(O)O
disk assay / mm: 6

molecule: O=C(Cc1cccs1)N[C@@H](Cc1cccc(C(=O)O)c1)B(O)O [EC04, reference compound]
disk assay / mm: 11

molecule: O=C(O)Cc1cn(C[C@H](NC(=O)Cc2cccs2)B(O)O)nn1
disk assay / mm: 10

molecule: O=C(Cc1cccs1)N[C@@H](Cn1cc(C(=O)O)nn1)B(O)O
disk assay / mm: 16

molecule: O=C(Cc1cccs1)N[C@@H](Cn1cc(-c2cccc(C(=O)O)c2)nn1)B(O)O
disk assay / mm: 15

molecule: O=C(Cc1cccs1)N[C@H](B(O)O)c1cccc(C(=O)O)c1 [SM23, reference compound]
disk assay / mm: 12

molecule: O=C(Cc1cccs1)N[C@@H](Cn1cc(-c2nn[nH]n2)nn1)B(O)O
disk assay / mm: 10

meta.source: paper PMC5987196
